assayed.target: human dopamine D2 receptor (Homo sapiens, UniProt P14416)
Construct: membrane preparation
Sequence (P14416 whole entry): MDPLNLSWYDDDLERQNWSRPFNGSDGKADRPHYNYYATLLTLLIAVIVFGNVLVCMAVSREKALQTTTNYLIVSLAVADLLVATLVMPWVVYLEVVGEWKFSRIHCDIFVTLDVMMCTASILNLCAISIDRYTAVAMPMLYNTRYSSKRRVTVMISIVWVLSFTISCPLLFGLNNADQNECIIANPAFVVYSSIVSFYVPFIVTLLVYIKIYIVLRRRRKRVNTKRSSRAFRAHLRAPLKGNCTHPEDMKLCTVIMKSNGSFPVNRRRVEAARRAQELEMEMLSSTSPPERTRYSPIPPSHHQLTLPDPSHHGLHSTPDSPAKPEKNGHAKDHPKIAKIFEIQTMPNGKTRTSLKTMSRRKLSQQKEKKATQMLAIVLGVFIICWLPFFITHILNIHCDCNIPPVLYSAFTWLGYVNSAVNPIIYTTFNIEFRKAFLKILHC
experimental.protocol: Radioligand binding ([3H]-spiperone) to membranes of HEK-293 EBNA cells expressing human D2 receptor
study.conditions: human D2, 0.7 nM [3H]-spiperone, HEK-293 EBNA membranes, 1 h at RT
property.label: Ki (nM)
Only the number, expressed in nM, is required.

Examples with their reported Ki follow.
>  <compound>
Cc1ccc2c(N3CCN(CC[C@H]4CC[C@H](NC(=O)CS(C)(=O)=O)CC4)CC3)noc2c1

>  <Ki, nM>
170

$$$$
>  <compound>
O=C(N[C@H]1CC[C@H](CCN2CCN(c3noc4cc(F)c(Cl)cc34)CC2)CC1)C1CC(Cl)C1 (some centres unmarked)

>  <Ki, nM>
11100

$$$$
>  <compound>
O=C(C[C@H]1CCCCO1)N[C@H]1CC[C@H](CCN2CCN(c3noc4cc(Cl)ccc34)CC2)CC1

>  <Ki, nM>
1020

$$$$
>  <compound>
O=C(N[C@H]1CC[C@H](CCN2CCN(c3noc4cc(Cl)ccc34)CC2)CC1)[C@H]1CCOC1

>  <Ki, nM>
488

$$$$
>  <compound>
Cc1cc2c(N3CCN(CC[C@H]4CC[C@H](NC(=O)CC5CCCO5)CC4)CC3)noc2cc1F (some centres unmarked)

>  <Ki, nM>
1070

$$$$
>  <compound>
COCCC(=O)N[C@H]1CC[C@H](CCN2CCN(c3noc4cc(Cl)c(Cl)cc34)CC2)CC1

>  <Ki, nM>
1970

$$$$
>  <compound>
Cc1cc(CC(=O)N[C@H]2CC[C@H](CCN3CCN(c4noc5cc(F)c(Cl)cc45)CC3)CC2)on1

>  <Ki, nM>
11100

$$$$
>  <compound>
O=C(N[C@H]1CC[C@H](CCN2CCN(c3noc4cc(F)c(Cl)cc34)CC2)CC1)C1CCC1

>  <Ki, nM>
4070

$$$$
>  <compound>
CO[C@@H]1CC[C@@H](CC(=O)N[C@H]2CC[C@H](CCN3CCN(c4noc5ccccc45)CC3)CC2)C1 (relative stereo)

>  <Ki, nM>
355

$$$$
>  <compound>
CO[C@@H]1CC[C@@H](CC(=O)N[C@H]2CC[C@H](CCN3CCN(c4noc5cc(F)c(F)cc45)CC3)CC2)C1 (relative stereo)

>  <Ki, nM>
822

$$$$

Using the record for CS(=O)(=O)N[C@H]1CC[C@H](CCN2CCN(c3noc4ccc(F)cc34)CC2)CC1 , state its measured Ki.
1070

Using the record for COCCC(=O)N[C@H]1CC[C@H](CCN2CCN(c3noc4ccc(F)cc34)CC2)CC1 , state its measured Ki.
725

Using the record for O=C(CC1C[C@@H]2CC[C@H]1O2)N[C@H]1CC[C@H](CCN2CCN(c3noc4ccc(F)cc34)CC2)CC1 (stereo in doubt) , state its measured Ki.
1020

Using the record for COCCC(=O)N[C@H]1CC[C@H](CCN2CCN(c3noc4cc(F)c(C)cc34)CC2)CC1 , state its measured Ki.
297

====

// pKi lookup, one value per entry
assayed.target: human dopamine D3 receptor (Homo sapiens)
Construct: expressed in transfected cells; host or cells: HEK-293 EBNA cells, transient transfection; membrane preparation
Sequence (P35462 whole entry): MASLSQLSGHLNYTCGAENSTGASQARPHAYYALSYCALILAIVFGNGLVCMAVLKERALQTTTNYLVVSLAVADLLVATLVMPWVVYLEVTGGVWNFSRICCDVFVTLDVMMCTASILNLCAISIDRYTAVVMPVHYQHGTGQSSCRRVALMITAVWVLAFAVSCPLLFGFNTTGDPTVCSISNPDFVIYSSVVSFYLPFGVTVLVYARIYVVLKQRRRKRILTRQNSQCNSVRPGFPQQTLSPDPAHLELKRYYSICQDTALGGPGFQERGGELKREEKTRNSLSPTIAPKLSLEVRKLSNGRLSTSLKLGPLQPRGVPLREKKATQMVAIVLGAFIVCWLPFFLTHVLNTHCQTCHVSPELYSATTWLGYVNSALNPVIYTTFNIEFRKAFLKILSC
experimental.protocol: Radioligand binding ([3H]-spiperone) to membranes of HEK-293 EBNA cells expressing human D3 receptor
study.conditions: human D3, 0.5 nM [3H]-spiperone, HEK-293 EBNA membranes, 1 h at RT
// returns pKi (minus log10 of molar concentration), number only

Examples with their reported pKi follow.
>  <compound>
O=C(CC1CCOCC1)N[C@H]1CC[C@H](CCN2CCN(c3noc4cc(Cl)c(Cl)cc34)CC2)CC1 [Example 97]

>  <endpoint.value>
8.02

$$$$
>  <compound>
CO[C@H]1CC[C@H](CC(=O)N[C@H]2CC[C@H](CCN3CCN(c4noc5cc(C)ccc45)CC3)CC2)CC1 [Example 100]

>  <endpoint.value>
7.75

$$$$

Please turn your attention to the following entry.
Provide pKi, recorded with human dopamine D3 receptor (Homo sapiens), of O=C(CC1CCCCO1)N[C@H]1CC[C@H](CCN2CCN(c3noc4cc(Cl)ccc34)CC2)CC1 (stereo partly drawn) [Example 35]
7.76
